solubility kinetic values, listed per item
Conditions: buffer; pH 7.4; 200.0 µM
Dear colleague, please return just the value in µg/mL, with no unit written.

>  <molecule>
CCOc1nc(-c2ccccc2Cl)nc2ccccc12

>  <solubility kinetic, µg/mL>
1.4

$$$$
>  <molecule>
COC(=O)CNC(c1ccccc1)c1cc(Br)ccc1N (stereo unspecified)

>  <solubility kinetic, µg/mL>
5.5

$$$$
>  <molecule>
Cc1ccc(NC(=O)CN2C(=O)c3ccccc3C2=O)cc1

>  <solubility kinetic, µg/mL>
2

$$$$

Alright, here's another molecule for you.
Input line: Return the recorded solubility kinetic value; entry: "COc1cc2c(cc1OC)CN(CC(=O)Nc1ccc(F)cc1)CC2"
Output line: 39
